pIC50: −log10 of the molar value.
human Smo (amino acids 181-787) (Homo sapiens): reported pIC50 for various molecules.
Sequence (Q99835 181-787): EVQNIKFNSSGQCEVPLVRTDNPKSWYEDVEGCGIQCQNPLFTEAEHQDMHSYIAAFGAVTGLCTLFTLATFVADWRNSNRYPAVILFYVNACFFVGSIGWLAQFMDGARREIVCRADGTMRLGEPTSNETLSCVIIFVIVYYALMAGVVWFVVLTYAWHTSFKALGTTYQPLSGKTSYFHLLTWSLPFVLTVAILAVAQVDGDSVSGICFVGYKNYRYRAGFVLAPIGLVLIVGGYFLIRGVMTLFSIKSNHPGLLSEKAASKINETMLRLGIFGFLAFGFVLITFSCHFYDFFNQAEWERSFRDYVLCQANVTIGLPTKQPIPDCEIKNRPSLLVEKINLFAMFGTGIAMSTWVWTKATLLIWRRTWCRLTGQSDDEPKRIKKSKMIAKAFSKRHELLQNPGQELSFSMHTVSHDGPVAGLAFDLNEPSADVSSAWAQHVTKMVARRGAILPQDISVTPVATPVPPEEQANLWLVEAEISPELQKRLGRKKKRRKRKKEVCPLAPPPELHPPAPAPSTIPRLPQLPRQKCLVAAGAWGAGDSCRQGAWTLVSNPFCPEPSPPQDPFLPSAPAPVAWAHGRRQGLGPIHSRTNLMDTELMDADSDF

molecule | pIC50
Cn1ccnc1C(O)C1CCN(c2cc(-c3nc4ccccc4n3C)c(Cl)cn2)CC1 (stereo not drawn) | 7.35
CCNC(=O)NC1CN(c2cc(-c3nc4ccccc4n3C)c(Cl)cn2)C1 | 7.68
CC(=O)N1CCN(c2cc(-c3nc4ccccc4n3C)ccn2)CC1 | 7.21
CC(=O)N1CCN(c2cccc(-c3nc4ccccc4n3C)n2)CC1 | 7.49
Cn1c(-c2cc(N3CCC(N4CCNC(=O)C4=O)CC3)ncc2Cl)nc2ccccc21 | 6.91
Cn1c(-c2cc(N3CC[C@@H](O)[C@@H](O)C3)ncc2Cl)nc2ccccc21 | 7.34
Cn1c(-c2cc(N3CC(O)C3)ncc2Cl)nc2ccccc21 | 7.06
CN(C)CC(=O)N1CCN(c2cc(-c3nc4ccccc4n3C)c(Cl)cn2)CC1 | 7.82
COC(=O)N1CCN(c2cc(-c3nc4ccccc4n3C)ccn2)CC1 | 7.47

Hello, the source for this data is patent US20120157471A1, in case you need it.
